Tested on: HCV replicon (BB7 sequence) in Huh-7-Clone A cells
method-notes: HCV replicon assay: ELISA of NS5A protein in replicon-containing cells (Inhibition of Viral RNA Replication)
Format: cell-based
assay-context: Hepatitis C virus, read-out: Replicon (μM)

{"input-smiles": "CCN(c1cc2oc(-c3ccc(F)cc3)c(C(=O)NC)c2cc1OCc1ccc2c(c1)C(=O)OC(C)(C)O2)S(C)(=O)=O", "EC50": "< 1 µM"}
{"input-smiles": "CNC(=O)c1c(-c2ccc(F)cc2)oc2cc(N(C)S(C)(=O)=O)c(OCc3cccc(C(=O)OC)c3)cc12", "EC50": "< 1 µM"}
{"input-smiles": "CCS(=O)(=O)Nc1cc2oc(-c3ccc(F)cc3)c(C(=O)NC)c2cc1OC(C)C", "EC50": "< 10 µM"}
{"input-smiles": "CNC(=O)c1c(-c2ccc(F)cc2)oc2cc(N3CCOCC3)c(OCc3ccc4c(c3)C(=O)OC(C)(C)O4)cc12", "EC50": "< 10 µM"}
